Target: hMC5-R (human) (UniProt P33032)
Sequence (P33032 whole entry): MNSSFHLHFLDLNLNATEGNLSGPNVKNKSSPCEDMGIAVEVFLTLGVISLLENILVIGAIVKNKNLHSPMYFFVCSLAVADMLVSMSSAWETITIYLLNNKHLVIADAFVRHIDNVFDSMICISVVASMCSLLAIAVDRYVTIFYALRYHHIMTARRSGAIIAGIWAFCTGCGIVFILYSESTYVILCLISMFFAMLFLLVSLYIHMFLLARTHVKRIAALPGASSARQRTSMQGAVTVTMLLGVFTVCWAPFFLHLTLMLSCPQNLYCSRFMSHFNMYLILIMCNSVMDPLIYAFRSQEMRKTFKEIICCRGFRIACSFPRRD
Experiment: competition with [125I]-NDP-α-MSH, CHO-K1 membranes
Bridge positions count the residues as written; N and C are the ends. Square brackets hold non-standard residues; d marks the D form. Ends that are not written are not given here. hArg = N=C(N)NCCCC[C@H](N)C(=O)O; βAla = NCCC(=O)O
Recorded metric: Ki (nM)
Please give a number only; it is taken to be in nM.

Any idea what its Ki is? The binder is [dF]CH[dF][hArg]W[βAla][dC]T-NH2 (disulfide 2-8; N-terminus assumed; SMILES C[C@@H](O)[C@H](NC(=O)[C@H]1CSSC[C@H](NC(=O)[C@H](N)Cc2ccccc2)C(=O)N[C@@H](Cc2c[nH]cn2)C(=O)N[C@H](Cc2ccccc2)C(=O)N[C@@H](CCCCNC(=N)N)C(=O)N[C@@H](Cc2c[nH]c3ccccc23)C(=O)NCCC(=O)N1)C(N)=O) [D-Phe-c(Cys-His-D-Phe-hArg-Trp-β-Ala-D-Cys)-Thr-NH2]
521

Okay, now this binder:
Any idea what its Ki is? The binder is [dF]CH[dF]RW[βAla][dC]T-NH2 (disulfide 2-8; N-terminus assumed; SMILES C[C@@H](O)[C@H](NC(=O)[C@H]1CSSC[C@H](NC(=O)[C@H](N)Cc2ccccc2)C(=O)N[C@@H](Cc2c[nH]cn2)C(=O)N[C@H](Cc2ccccc2)C(=O)N[C@@H](CCCNC(=N)N)C(=O)N[C@@H](Cc2c[nH]c3ccccc23)C(=O)NCCC(=O)N1)C(N)=O) [D-Phe-c(Cys-His-D-Phe-Arg-Trp-β-Ala-D-Cys)-Thr-NH2]
344

// data source = patent US20120135923A1
